Reference source: paper PMC9301920

assay-explanation: In vivo zebrafish kinetics of BPZ (water exposure, organ concentrations by LC-MS/MS)
Design: species or system zebrafish (Danio rerio)
condition-details: female, zebrafish, whole body, other: exposure via tank water, 10 μg/L (nominal water concentration), female zebrafish, 483 h (depuration phase); read-out: Mean concentration, whole body (calculated)
measure: concentration at 483 h
Please answer using the number first and the unit second.

Query block: Consider the compound Oc1ccc(C2(c3ccc(O)cc3)CCCCC2)cc1 . State its measured concentration at 483 h.
Result block: 128 ng/g

----------
assay-explanation: In vivo zebrafish kinetics of BPZ (water exposure, organ concentrations by LC-MS/MS)
Design: species or system zebrafish (Danio rerio)
condition-details: female, zebrafish, brain, other: water exposure, 10 µg/L, female zebrafish, 411 h; read-out: Mean concentration, brain
measure: concentration at 411 h (ng/g)
Number in ng/g, nothing else.

Query block: Consider the compound Oc1ccc(C2(c3ccc(O)cc3)CCCCC2)cc1 . State its measured concentration at 411 h.
Result block: 150

----------
assay-explanation: In vitro biotransformation rate, rainbow trout liver S9 (OECD TG 319)
Type: in vitro ADME
condition-details: series 2 (s2)
Classify as follows. Reported k (first-order disappearance rate constant) greater than or equal to 0.8 h⁻¹: Criterion met. Reported k (first-order disappearance rate constant) below: Criterion not met.

Some entries whose results are on file:
compound="O=S(=O)(c1ccc(O)cc1)c1ccc(O)cc1 [BPS, bisphenol S]" category_label="Criterion not met"
compound="Oc1ccc(Cc2ccc(O)cc2)cc1 [BPF, bisphenol F]" category_label="Criterion not met"
compound="Cc1cc(C(C)(C)c2ccc(O)c(C)c2)ccc1O [BPC, bisphenol C]" category_label="Criterion met"

Query block: Form field: k (first-order disappearance rate constant) at least 0.8 h⁻¹? Entry: CC(c1ccccc1)(c1ccc(O)cc1)c1ccc(O)cc1 [BPAP, bisphenol AP]
Result block: Criterion met

----------
assay-explanation: In vivo zebrafish kinetics of BPZ (water exposure, organ concentrations by LC-MS/MS)
Set-up: species or system zebrafish (Danio rerio)
condition-details: female, zebrafish, whole body, other: exposure via tank water, 10 μg/L (nominal water concentration), female zebrafish, 576 h (depuration phase); read-out: Mean concentration, whole body (calculated)
measure: concentration at 576 h

Query block: Consider the compound Oc1ccc(C2(c3ccc(O)cc3)CCCCC2)cc1 . State its measured concentration at 576 h.
Result block: 1.5 ng/g

----------
assay-explanation: In vivo zebrafish kinetics of BPZ (water exposure, organ concentrations by LC-MS/MS)
Set-up: species or system zebrafish (Danio rerio)
condition-details: female, zebrafish, ovary, other: water exposure, 10 µg/L, female zebrafish, 336 h; read-out: Mean concentration, ovary
Method: At sampling, adult fish were euthanized by immersion in a sodium bicarbonate-buffered tricaine methanesulfonate solution (MS222: 500 mg/L) and decapitated thereafter. […] 176The extracts were measured on a LC (ExionLC, Sciex) coupled with a Turbo V Ion source (ESI) […] 195plus the average blank value. The limit of quantification (LOQ) is defined as 3.3 * LOD value […] Detection and report limits (calculated on based of average sample intake)
measure: concentration at 336 h (ng/g)
Number in ng/g, nothing else.

Query block: Consider the compound Oc1ccc(C2(c3ccc(O)cc3)CCCCC2)cc1 . State its measured concentration at 336 h.
Result block: 269
